Parameter pIC50: see the listing below.
Target Desc: PAR2 (HT-29 cells, trypsin activation) (Homo sapiens, UniProt P55085)
Construct: host or cells: HT-29 cells
Sequence (P55085 26-397): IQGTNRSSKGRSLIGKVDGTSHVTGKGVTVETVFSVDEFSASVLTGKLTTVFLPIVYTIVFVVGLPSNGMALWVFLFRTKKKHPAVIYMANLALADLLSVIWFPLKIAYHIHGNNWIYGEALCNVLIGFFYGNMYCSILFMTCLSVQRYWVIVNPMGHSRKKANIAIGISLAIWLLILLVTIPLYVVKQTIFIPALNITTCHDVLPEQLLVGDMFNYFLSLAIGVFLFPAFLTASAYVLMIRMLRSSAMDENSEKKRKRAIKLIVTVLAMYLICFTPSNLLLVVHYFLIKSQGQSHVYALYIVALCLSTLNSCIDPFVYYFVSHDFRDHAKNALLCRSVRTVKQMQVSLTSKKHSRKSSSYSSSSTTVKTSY
Measurement Protocol: Ca FLIPR TETRA assay, ANTAGONIST mode, stimulation with 3.1 U/mL trypsin
Type: cell-based
Experimental Parameters: HT-29 cells, antagonist mode, stimulation with 3.1 U/mL trypsin
# pIC50 = -log10(concentration in molar units)

Recorded results for 2 compounds are shown here.
In [3]: df
Out[3]:
                                   compound                               target_desc  reading
0  CC(C)c1cc(-c2ccc(C(F)(F)F)cc2)nn2cc(C(=O)N3CCN(C(=O)c4ccn[nH]4)CC3(C)C)nc12 [Compound I-246]  PAR2 (HT-29 cells, trypsin activation) (Homo sapiens, UniProt P55085)     8.70
1  COC(=O)[C@H]1CC[C@H](C(=O)N2CCN(C(=O)c3cn4nc(-c5ccc(Cl)cc5)cc(C(C)C)c4n3)C(C)(C)C2)CC1 [Compound I-546]  PAR2 (HT-29 cells, trypsin activation) (Homo sapiens, UniProt P55085)     8.80

Now, please, on to the next compound.
For the compound Cc1ccc(-c2cc(C(C)C)c3nc(C(=O)N4CCN(C(=O)[C@H]5C[C@@](O)(C(F)(F)F)C5)CC4(C)C)cn3n2)cc1 [Compound I-263] , the measured pIC50 on PAR2 (HT-29 cells, trypsin activation) (Homo sapiens, UniProt P55085) was 8.14
